# Test system: IGROV-1
# test: NCI tumour cell line growth inhibition, 48 h
Active and inactive are the calls of the source. Cut-off read from the data, not from the text of the source: active = GI50 up to about 1.1 µM and inactive = higher.

{"compound": "COc1c(C)c2c(c3c1c(=O)c1ccccc1n3C)C=CC(C)(C)O2", "GI50": "30.3 µM (inactive)"}
{"compound": "CC1=C(CO)C(=O)OC(C(C)C2CCC3C4CC5OC56C(O)C(N5CC5)=CC(=O)C6(C)C4CCC23C)C1 (stereo unspecified)", "GI50": "3.47 µM (inactive)"}
{"compound": "FC(F)(F)c1ccc2nc(Sc3ccc4ccccc4c3)cnc2c1", "GI50": "> 100 µM (inactive)"}
{"compound": "Cc1ccc(-c2cc(-c3ccccc3)c(C#N)c(=O)n2C2OC(CO)C(O)C(O)C2O)cc1 (stereo unspecified)", "GI50": "> 100 µM (inactive)"}
{"compound": "Cc1ccc(S(=O)(=O)OI(O)CC(F)(F)F)cc1", "GI50": "> 100 µM (inactive)"}
{"compound": "CSc1ccc(NC(=S)NN(C)C)cc1", "GI50": "> 10 µM (inactive)"}

###

# System: LOX IMVI
# test: NCI tumour cell line growth inhibition, 48 h
Calls of active or inactive are those of the source. Cut-off read from the data, not from the text of the source: active = GI50 up to about 1.1 µM and inactive = higher.
Possible outcomes: True = active, False = inactive

{"compound": "O=C(O)c1ccccc1Sc1ccccc1[N+](=O)[O-]", "class": "False"}
{"compound": "CC(C)(C)c1cc([N+](=O)[O-])cc([N+](=O)[O-])c1O [DINOTERB]", "class": "False"}
{"compound": "CC(C)(C)OC(=O)Cn1ncn(NC(=O)Cc2ccccc2)c1=S", "class": "False"}
{"compound": "COc1ccc2occ(CCC(=O)O)c2c1", "class": "False"}
{"compound": "C/C(=N\\N)C(CN(C)C)C(c1ccccc1)c1c(O)c2ccccc2oc1=O (stereo not given)", "class": "False"}
{"compound": "O=C(Nc1ccc(Cl)cc1)Oc1ccc(C(=S)Nc2ccc(Br)cc2)cc1", "class": "True"}
{"compound": "O=C(NC(CS)C(=O)O)c1c2ccccc2nc2ccccc12 (stereo not given)", "class": "False"}
{"compound": "CCOP(=O)(OCC)C(F)(F)CC1CCCCC1", "class": "False"}
{"compound": "CCOC(=O)C1C(c2ccc(O)c(OC)c2)c2c(n[nH]c2O)CC1(C)O (stereo not given)", "class": "False"}
{"compound": "COc1cc(/C=C2\\C[C@H]3[C@@H]4CC=C5C[C@@H](O)CC[C@]5(C)[C@H]4CC[C@]3(C)C2=O)cc(OC)c1OC", "class": "False"}

###

# Test system: SK-OV-3
# test: NCI tumour cell line growth inhibition, 48 h
Calls of active or inactive are those of the source. No stated cut-off is given here; in the data, active = GI50 up to about 1.1 µM and inactive = higher.
Form field: GI50 (one value per entry).
experimental endpoint: GI50

{"compound": "O=C1/C(=C/c2cccc([N+](=O)[O-])c2)Cc2ccccc21", "experimental endpoint": "GI50", "result": "> 100 µM (inactive)"}
{"compound": "O=C1C(c2c(O)[nH]c3ccc(I)cc23)=Nc2ccccc21", "experimental endpoint": "GI50", "result": "3.97 µM (inactive)"}
{"compound": "Nc1nc2c(c(=O)[nH]1)NC(CO)CN2 (centres undefined)", "experimental endpoint": "GI50", "result": "> 100 µM (inactive)"}
{"compound": "NNC(=S)N/N=C/C(=C/Nc1ccccc1)[N+](=O)[O-]", "experimental endpoint": "GI50", "result": "> 100 µM (inactive)"}
{"compound": "O=c1c2cc(Br)ccc2nc(-c2ccccc2)n1NCC1(O)OCC(O)C(O)C1O (centres undefined)", "experimental endpoint": "GI50", "result": "> 100 µM (inactive)"}
{"compound": "FC(F)(F)c1ccc2nc(Sc3ccc4ccccc4c3)cnc2c1", "experimental endpoint": "GI50", "result": "> 100 µM (inactive)"}
{"compound": "COc1c(C)c2c(c3c1c(=O)c1ccccc1n3C)C=CC(C)(C)O2", "experimental endpoint": "GI50", "result": "12.7 µM (inactive)"}
{"compound": "O=C(/C=C/c1ccccc1)CCN1CCN(CCC(=O)/C=C/c2ccccc2)CC1", "experimental endpoint": "GI50", "result": "13.5 µM (inactive)"}
{"compound": "CS[C@]12C(=O)C[C@@]3(C)[C@@H](CC[C@]3(O)C(=O)CO)[C@@H]1CCC1=CC(=O)CC[C@@]12C", "experimental endpoint": "GI50", "result": "> 100 µM (inactive)"}
